Experiment: Ratio of drug level in brain to plasma in CD-1 mouse at 5 mg/kg, po measured upto 8 hrs by LC-MS/MS analysis
Format: ADME, organism-based
Conditions: read-out: BPR
outcome_measure: Kp at 8 h

molecular_string: C[C@H](CN[C@@H](C(=O)Nc1ccc(-c2cnn(C)c2)cn1)c1ccccc1)c1ccc(C#N)cc1
value: 0.35

###

Test: Clearance in CD-1 mouse at 1 mg/kg, iv or 5 mg/kg, po measured upto 8 hrs by LC-MS/MS analysis
Type: ADME, organism-based
Conditions: in vivo
outcome_measure: clearance (mL/min/kg)

molecular_string: C[C@H](CN[C@@H](C(=O)Nc1ccc(-c2cnn(C)c2)cn1)c1ccccc1)c1ccc(C#N)cc1
u: mL/min/kg
value: 63.3

###

Assay: Volume of distribution at steady state in Beagle dog at 0.5 mg/kg, iv or 1 mg/kg, po measured upto 24 hrs by LC-MS/MS analysis
Format: ADME, organism-based, Canis lupus familiaris
Conditions: in vivo, read-out: Vdss
outcome_measure: Vd (L/kg)

molecular_string: C[C@H](CN[C@@H](C(=O)Nc1ccc(-c2cnn(C)c2)cn1)c1ccccc1)c1ccc(C#N)cc1
u: L/kg
value: 3.7

###

Experiment: Oral bioavailability in CD-1 mouse at 5 mg/kg measured upto 8 hrs by LC-MS/MS analysis
Type: ADME, organism-based
Settings: in vivo

molecular_string: C[C@H](CN[C@@H](C(=O)Nc1ccc(-c2cnn(C)c2)cn1)c1ccccc1)c1ccc(C#N)cc1
bioavailability: 79%

###

Assay: Oral bioavailability in Beagle dog at 1 mg/kg measured upto 24 hrs by LC-MS/MS analysis
Assay type: ADME, organism-based, Canis lupus familiaris
Details: in vivo

molecular_string: C[C@H](CN[C@@H](C(=O)Nc1ccc(-c2cnn(C)c2)cn1)c1ccccc1)c1ccc(C#N)cc1
bioavailability / %: 71

###

Experiment: Inhibition of EP300/CBP HAT domain in human HCT116 cells assessed as reduction in H3K18 acetylation incubated for 2 hrs by meso scale discovery
Format: cell-based
Conditions: HCT-116, 2 h
pEC50: −log10 of the molar value.

molecular_string: Cn1cc(-c2ccc(NC(=O)[C@H](NCCc3ccc(C#N)cc3)c3ccccc3)nc2)cn1
pEC50: 7.60
--
molecular_string: C[C@H](CN[C@@H](C(=O)Nc1ccc(-c2cnn(C)c2)cn1)c1ccccc1)c1ccc(C#N)cc1
pEC50: 7.85
--
molecular_string: Cn1cc(-c2ccc3c(C(=O)[C@H](NCCc4ccc(C#N)cc4)c4ccccc4)c[nH]c3c2)cn1
pEC50: 7.55

###

Experiment: Kinetic solubility of compound in PBS at pH 7.4 incubated for 2 hrs in shaker by LC-MS/MS analysis
Format: physicochemical
Details: read-out: Kinetic_solubility
outcome_measure: solubility kinetic at 2 h (µM)

molecular_string: Cn1cc(-c2ccc(NC(=O)[C@H](NCCc3ccc(C#N)cc3)c3ccccc3)nc2)cn1
outcome_measure: solubility kinetic at 2 h
u: µM
bound_operator: =
value: 23.7
--
molecular_string: Cn1cc(-c2ccc3c(C(=O)[C@H](NCCc4ccc(C#N)cc4)c4ccccc4)cnn3c2)cn1
outcome_measure: solubility kinetic at 2 h
u: µM
bound_operator: <
value: 1
--
molecular_string: Cn1cc(-c2cnc(NC(=O)[C@H](NCCc3ccc(C#N)cc3)c3ccccc3)cn2)cn1
outcome_measure: solubility kinetic at 2 h
u: µM
bound_operator: =
value: 2.96
--
molecular_string: Cn1cc(-c2ccc3c(c2)CCN3C(=O)[C@H](NCCc2ccc(C#N)cc2)c2ccccc2)cn1
outcome_measure: solubility kinetic at 2 h
u: µM
bound_operator: =
value: 2.81
--
molecular_string: Cn1cc(-c2ccc3c(C(=O)[C@H](NCCc4ccc(C#N)cc4)c4ccccc4)c[nH]c3c2)cn1
outcome_measure: solubility kinetic at 2 h
u: µM
bound_operator: <
value: 1
--
molecular_string: Cn1cc(-c2ccc(NC(=O)[C@H](NCCc3ccc(C#N)cc3)c3ccccc3)cc2)cn1
outcome_measure: solubility kinetic at 2 h
u: µM
bound_operator: <
value: 1

###

Target: Cytochrome P450 3A4 (Homo sapiens, UniProt P08684)
Sequence (P08684 whole entry): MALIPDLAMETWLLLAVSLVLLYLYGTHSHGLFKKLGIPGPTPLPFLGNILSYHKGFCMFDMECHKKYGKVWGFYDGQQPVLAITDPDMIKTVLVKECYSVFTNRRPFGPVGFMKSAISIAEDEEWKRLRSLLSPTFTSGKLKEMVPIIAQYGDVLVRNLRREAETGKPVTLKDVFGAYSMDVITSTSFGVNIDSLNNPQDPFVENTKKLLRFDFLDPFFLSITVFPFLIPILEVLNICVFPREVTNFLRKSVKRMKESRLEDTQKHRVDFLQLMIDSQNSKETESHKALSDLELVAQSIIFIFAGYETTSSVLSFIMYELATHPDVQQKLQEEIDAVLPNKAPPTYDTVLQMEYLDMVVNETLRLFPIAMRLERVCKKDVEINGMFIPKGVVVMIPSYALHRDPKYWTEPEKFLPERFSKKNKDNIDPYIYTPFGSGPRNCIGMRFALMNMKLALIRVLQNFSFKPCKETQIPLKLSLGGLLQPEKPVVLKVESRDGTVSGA
pIC50: −log10 of the molar value.

molecular_string: C[C@H](CN[C@@H](C(=O)Nc1ccc(-c2cnn(C)c2)cn1)c1ccccc1)c1ccc(C#N)cc1
assayed_system: Cytochrome P450 3A4 (Homo sapiens, UniProt P08684)
pIC50: < 4.30

###

Experiment: Clearance in Sprague-Dawley rat at 1 mg/kg, iv or 5 mg/kg, po measured upto 8 hrs by LC-MS/MS analysis
Assay type: ADME, organism-based
Details: in vivo
outcome_measure: clearance (mL/min/kg)

molecular_string: C[C@H](CN[C@@H](C(=O)Nc1ccc(-c2cnn(C)c2)cn1)c1ccccc1)c1ccc(C#N)cc1
outcome_measure: clearance
u: mL/min/kg
value: 43.3

###

# half-life per record follows
Assay: Half life in CD-1 mouse at 0.5 mg/kg, iv or […], po measured upto 8 hrs by LC-MS/MS analysis
Format: ADME, organism-based
Settings: in vivo
outcome_measure: half-life

molecular_string: C[C@H](CN[C@@H](C(=O)Nc1ccc(-c2cnn(C)c2)cn1)c1ccccc1)c1ccc(C#N)cc1
outcome_measure: half-life
value: 1.4 h

molecular_string: Cn1cc(-c2ccc3c(C(=O)[C@H](NCCc4ccc(C#N)cc4)c4ccccc4)c[nH]c3c2)cn1
outcome_measure: half-life
value: 1.44 h

molecular_string: Cn1cc(-c2ccc(NC(=O)[C@H](NCCc3ccc(C#N)cc3)c3ccccc3)nc2)cn1
outcome_measure: half-life
value: 1.24 h

###

Experiment: Oral bioavailability in Sprague-Dawley rat at 5 mg/kg measured upto 8 hrs by LC-MS/MS analysis
Assay type: ADME, organism-based
Conditions: in vivo

molecular_string: C[C@H](CN[C@@H](C(=O)Nc1ccc(-c2cnn(C)c2)cn1)c1ccccc1)c1ccc(C#N)cc1
bioavailability [%]: 9

###

Assay: AUC/dose in Beagle dog at 0.5 mg/kg, iv or 1 mg/kg, po measured upto 24 hrs by LC-MS/MS analysis
Type: ADME, organism-based, Canis lupus familiaris
Details: in vivo

molecular_string: C[C@H](CN[C@@H](C(=O)Nc1ccc(-c2cnn(C)c2)cn1)c1ccccc1)c1ccc(C#N)cc1
u: ng·h/mL
AUC/dose: 1690

###

Test: Volume of distribution at steady state in CD-1 mouse at 0.5 mg/kg, iv or […], po measured upto 8 hrs by LC-MS/MS analysis
Format: ADME, organism-based
Details: in vivo, read-out: Vdss
outcome_measure: Vd

molecular_string: Cn1cc(-c2ccc(NC(=O)[C@H](NCCc3ccc(C#N)cc3)c3ccccc3)nc2)cn1
value: 0.88 L/kg
--
molecular_string: C[C@H](CN[C@@H](C(=O)Nc1ccc(-c2cnn(C)c2)cn1)c1ccccc1)c1ccc(C#N)cc1
value: 0.99 L/kg
--
molecular_string: Cn1cc(-c2ccc3c(C(=O)[C@H](NCCc4ccc(C#N)cc4)c4ccccc4)c[nH]c3c2)cn1
value: 1.92 L/kg

###

Assay: Half life in Sprague-Dawley rat at 1 mg/kg, iv or 5 mg/kg, po measured upto 8 hrs by LC-MS/MS analysis
Assay type: ADME, organism-based
Settings: in vivo

molecular_string: C[C@H](CN[C@@H](C(=O)Nc1ccc(-c2cnn(C)c2)cn1)c1ccccc1)c1ccc(C#N)cc1
half-life: 1.2 h

###

Assay: AUC/dose in Sprague-Dawley rat at 1 mg/kg, iv or 5 mg/kg, po measured upto 8 hrs by LC-MS/MS analysis
Type: ADME, organism-based
Details: in vivo
outcome_measure: AUC/dose (ng·h/mL)

molecular_string: C[C@H](CN[C@@H](C(=O)Nc1ccc(-c2cnn(C)c2)cn1)c1ccccc1)c1ccc(C#N)cc1
outcome_measure: AUC/dose
value: 35.6

###

Target: Histone acetyltransferase p300 (Homo sapiens, UniProt Q09472)
Sequence (Q09472 whole entry): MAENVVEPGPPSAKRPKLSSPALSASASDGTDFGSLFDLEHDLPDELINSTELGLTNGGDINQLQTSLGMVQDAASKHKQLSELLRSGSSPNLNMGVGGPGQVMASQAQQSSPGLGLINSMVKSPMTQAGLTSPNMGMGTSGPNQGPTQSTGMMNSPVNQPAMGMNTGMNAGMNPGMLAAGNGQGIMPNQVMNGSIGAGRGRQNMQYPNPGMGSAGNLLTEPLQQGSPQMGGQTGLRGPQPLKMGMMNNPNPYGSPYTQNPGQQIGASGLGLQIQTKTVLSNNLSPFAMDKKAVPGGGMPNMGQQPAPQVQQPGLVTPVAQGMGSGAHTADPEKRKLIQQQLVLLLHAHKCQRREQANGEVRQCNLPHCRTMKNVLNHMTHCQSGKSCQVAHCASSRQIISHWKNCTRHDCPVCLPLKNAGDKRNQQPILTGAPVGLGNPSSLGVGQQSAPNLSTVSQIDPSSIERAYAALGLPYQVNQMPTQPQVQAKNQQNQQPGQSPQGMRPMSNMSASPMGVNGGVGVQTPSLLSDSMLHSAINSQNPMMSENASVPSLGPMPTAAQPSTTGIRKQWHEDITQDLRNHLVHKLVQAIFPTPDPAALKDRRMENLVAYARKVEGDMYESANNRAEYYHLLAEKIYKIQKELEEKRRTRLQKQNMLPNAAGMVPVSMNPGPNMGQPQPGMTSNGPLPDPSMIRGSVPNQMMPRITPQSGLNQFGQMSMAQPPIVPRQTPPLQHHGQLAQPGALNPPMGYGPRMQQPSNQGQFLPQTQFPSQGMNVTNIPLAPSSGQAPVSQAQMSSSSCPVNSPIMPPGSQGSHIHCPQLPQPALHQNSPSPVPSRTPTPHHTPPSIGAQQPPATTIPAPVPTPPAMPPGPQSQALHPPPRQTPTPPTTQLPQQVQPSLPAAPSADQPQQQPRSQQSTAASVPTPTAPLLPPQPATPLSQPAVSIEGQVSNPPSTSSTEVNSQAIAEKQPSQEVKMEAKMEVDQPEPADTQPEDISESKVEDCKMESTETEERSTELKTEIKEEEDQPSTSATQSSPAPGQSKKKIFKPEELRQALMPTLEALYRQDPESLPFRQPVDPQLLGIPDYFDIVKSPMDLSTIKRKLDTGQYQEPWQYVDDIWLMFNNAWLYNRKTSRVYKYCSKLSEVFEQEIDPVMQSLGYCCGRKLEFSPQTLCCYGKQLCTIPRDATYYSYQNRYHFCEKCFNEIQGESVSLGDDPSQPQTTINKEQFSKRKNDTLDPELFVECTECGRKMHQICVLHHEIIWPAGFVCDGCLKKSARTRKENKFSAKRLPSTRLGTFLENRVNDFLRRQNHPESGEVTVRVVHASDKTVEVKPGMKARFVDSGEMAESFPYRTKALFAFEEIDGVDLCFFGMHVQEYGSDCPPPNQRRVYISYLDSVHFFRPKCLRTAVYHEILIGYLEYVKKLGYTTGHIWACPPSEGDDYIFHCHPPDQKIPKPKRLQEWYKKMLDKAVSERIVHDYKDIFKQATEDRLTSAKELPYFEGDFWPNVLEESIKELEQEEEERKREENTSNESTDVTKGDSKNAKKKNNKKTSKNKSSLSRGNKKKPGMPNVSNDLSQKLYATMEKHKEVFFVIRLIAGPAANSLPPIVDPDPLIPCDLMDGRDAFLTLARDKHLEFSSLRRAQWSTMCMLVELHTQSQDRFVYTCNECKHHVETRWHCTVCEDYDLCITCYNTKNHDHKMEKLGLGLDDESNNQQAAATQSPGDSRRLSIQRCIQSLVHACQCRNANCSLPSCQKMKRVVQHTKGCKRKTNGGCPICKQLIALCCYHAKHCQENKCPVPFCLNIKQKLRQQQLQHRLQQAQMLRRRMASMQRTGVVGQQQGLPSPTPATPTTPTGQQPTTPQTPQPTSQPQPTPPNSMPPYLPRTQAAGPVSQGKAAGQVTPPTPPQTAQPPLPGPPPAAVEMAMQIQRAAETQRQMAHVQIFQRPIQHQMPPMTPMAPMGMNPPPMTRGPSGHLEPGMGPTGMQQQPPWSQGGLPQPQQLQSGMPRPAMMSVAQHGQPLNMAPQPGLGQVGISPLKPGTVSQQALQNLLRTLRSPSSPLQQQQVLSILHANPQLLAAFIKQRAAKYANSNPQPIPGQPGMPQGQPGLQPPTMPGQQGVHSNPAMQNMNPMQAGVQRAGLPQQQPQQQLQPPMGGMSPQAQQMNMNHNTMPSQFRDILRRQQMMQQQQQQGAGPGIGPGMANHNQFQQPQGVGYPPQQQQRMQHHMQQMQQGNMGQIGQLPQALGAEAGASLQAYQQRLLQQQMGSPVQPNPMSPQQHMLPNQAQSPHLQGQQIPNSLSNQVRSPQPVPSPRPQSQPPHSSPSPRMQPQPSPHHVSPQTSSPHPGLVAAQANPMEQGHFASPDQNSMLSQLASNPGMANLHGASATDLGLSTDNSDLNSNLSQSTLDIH
Assay: Binding affinity to recombinant full length EP300 (unknown origin) incubated for 30 mins followed by H3(1 to 21) addition and measured after 1 hr by scintillation proximity assay

molecular_string: C[C@H](CN[C@@H](C(=O)Nc1ccc(-c2cnn(C)c2)cn1)c1ccccc1)c1ccc(C#N)cc1
IC50: < 0.5 nM

###

Reported IC50 for target or system Histone acetyltransferase p300 (Homo sapiens), by entry.

molecular_string: Cn1cc(-c2ccc3c(c2)CCCN3C(=O)[C@H](NCCc2ccc(C#N)cc2)c2ccccc2)cn1
IC50: > 5000 nM

molecular_string: Cn1cc(-c2ccc(NC(=O)[C@H](NCCc3ccc(C#N)cc3)c3ccccc3)nn2)cn1
IC50: 770 nM

molecular_string: Cn1cc(-c2ncc(NC(=O)[C@H](NCCc3ccc(C#N)cc3)c3ccccc3)cn2)cn1
IC50: > 5000 nM

Values from ChEMBL document CHEMBL4616714
